- System: SR leukemia
- test-method-notes: NCI tumour cell line growth inhibition, 48 h
Provide the reported TGI of each item.
Kindly answer with a numeric value in µM, unit omitted.

Measured TGI, CC1=C(/C=C/C2=CC(=C\C(=O)O)/CC(C3=C(C)CCCC3(C)C)C2)C(C)(C)CCC1 (stereo not given) : 24.2

Per the records, this molecule ( "COC(=O)c1ccc(CCc2cc(O)c(Br)cc2O)cc1" ) has TGI equal to 14.4

Lab note: measured TGI of "Oc1ccc2ccccc2c1N=Nc1ccccn1" was 10.4

// "CCOC(=O)C#Cc1ccc([N+](=O)[O-])cc1" : TGI value = 5.27

Entry O=CC1OC(=O)c2cc(O)c(O)c(O)c2-c2c(cc(O)c(O)c2O)C(=O)OC1C(O)C(O)CO (stereo not given) ; TGI = 51.3

TGI reported for this molecule CN(C)c1ccc2cc(-c3cc4c(oc3=O)-c3ccccc3OC4O)c(=O)oc2c1 (stereo not given) : 9.96

Looking up "O=C1C=C(N2CC2)C(=O)C=C1N1CC1" , I see its TGI listed as 0.302

The recorded TGI for entry CCC(c1ccc(OC)cc1)C(CC)c1ccc(O)c(CN2CCCC2)c1 (stereo not given) equals 4.62

TGI in this record for "O=C(N/C(=C\c1ccc([N+](=O)[O-])cc1)c1nc2ccc(Cl)cc2[nH]1)c1ccccc1" : 63.3

Looking up "CC(=O)O[C@H]1CC[C@@]2(C)C(=CC[C@@H]3[C@@H]2CC[C@]2(C)c4c(cc(C#N)c(=N)n4C(C)=O)C[C@@H]32)C1" , I see its TGI listed as 61.2

# molecule CCOC(=O)COc1c(OC)cc(C2C3=C(COC3=O)Oc3cc4c(cc32)OCO4)cc1OC (stereo not given) ; its TGI = 27.1
